target entity: Proteasome subunit beta type-9 (PSMB9)
experiment notes: Inhibition of human spleen 20S immuno proteosome beta1i subunit assessed as substrate hydrolysis using Ac-Pro-Ala-Leu-AMC as fluorogenic substrate by fluorescence based assay
property: Ki
Field: value (include unit after the number)

Prompt: State its Ki for this molecule: O=C(CCn1ccccc1=O)NCc1ccccc1
Response: 21 nM

Reference source for all entries: BindingDB's records for PubMed 34838650
